# Tgt: CDK9/cyclin T1 (Homo sapiens) (UniProt O60563+P50750)
# Assay Procedure: Inhibition of recombinant full length human CDK9/cyclin T expressed in baculovirus infected Sf9 insect cells assessed as residual activity at 10 uM using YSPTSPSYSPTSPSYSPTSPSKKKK as substrate in presence of [gamma-33P]ATP
Exercise: for every item that follows, state its recorded Activity.
Put your answer as a value accompanied by its unit after it.

Which value of Activity has been reported for N#CCCCCCn1cc(C2=C(c3cn(CCCCCC#N)c4ccccc34)C(=O)N(O)C2=O)c2ccccc21 in the records?
55%

Next compound up: Cn1cc(C2=C(c3cn(CCCCCC(=O)O)c4ccccc34)C(=O)N(O)C2=O)c2ccccc21
15%

Next compound up: CCn1cc(C2=C(c3cn(C(C)C)c4ccccc34)C(=O)N(O)C2=O)c2ccccc21
5%

Next compound up: Cn1cc(C2=C(c3cn(C)c4ncccc34)C(=O)NC2=O)c2ccccc21
-10%

Next compound up: Cn1cc(C2=C(c3cn(CCCCCC#N)c4ccccc34)C(=O)N(O)C2=O)c2ccccc21
17%

Next compound up: O=C1C(c2c[nH]c3ccccc23)=C(c2c[nH]c3ncccc23)C(=O)N1O
89%

Next compound up: O=C(O)CCCCCn1cc(C2=C(c3c[nH]c4ccccc34)C(=O)N(O)C2=O)c2ccccc21
19%

Next compound up: Cn1cc(C2=C(c3cn(C)c4ccccc34)C(=O)N(O)C2=O)c2ccccc21
38%

Next compound up: Cn1cc(C2=C(c3c[nH]c4ccccc34)C(=O)N(O)C2=O)c2ccccc21
19%

* * *

Exercise: for every item that follows, state its recorded growth at 10 µM.
# System: K562
# Assay Procedure: Cytotoxicity against human K562 cells assessed as cell growth at 10 uM after 48 hrs by SRB assay relative to control
# Assay type: functional
# Condition Summary: K562, 48 h, read-out: Activity

Which value of growth at 10 µM has been reported for O=C1C2=C(C(=O)N1O)c1cn(c3ccccc13)CCCCCCn1cc2c2ccccc21 in the records?
109%

Next molecule up: CC(C)n1cc(C2=C(c3c[nH]c4ccccc34)C(=O)N(O)C2=O)c2ccccc21
86.3%

Next molecule up: Cn1cc(C2=C(c3cn(C)c4ncccc34)C(=O)NC2=O)c2ccccc21
16 to 19.9%

Next molecule up: Cn1cc(C2=C(c3cn(CCCCCC#N)c4ccccc34)C(=O)N(O)C2=O)c2ccccc21
78.8%

Next molecule up: O=C(O)CCCCCn1cc(C2=C(c3c[nH]c4ccccc34)C(=O)N(O)C2=O)c2ccccc21
94.8%

Next molecule up: N#CCCCCCn1cc(C2=C(c3cn(CCCCCC#N)c4ccccc34)C(=O)N(O)C2=O)c2ccccc21
15 to 33.9%

Next molecule up: CC(C)n1cc(C2=C(c3cn(C)c4ccccc34)C(=O)N(O)C2=O)c2ccccc21
77.7%

Next molecule up: Cn1cc(C2=C(c3c[nH]c4ccccc34)C(=O)N(O)C2=O)c2ccccc21
50.2%

Next molecule up: Cn1cc(C2=C(c3cn(C)c4ccccc34)C(=O)N(O)C2=O)c2ccccc21
100%

Next molecule up: Cn1cc(C2=C(c3cn(CCCCCC(=O)O)c4ccccc34)C(=O)N(O)C2=O)c2ccccc21
103%

* * *

# Tested on: KM12
# Assay Procedure: Cytotoxicity against human KM12 cells assessed as cell growth at 10 uM after 48 hrs by SRB assay relative to control
# Assay type: functional
# Condition Summary: KM12, 48 h, read-out: Activity
Exercise: for every item that follows, state its recorded growth at 10 µM.
Expressed in %, but write only the number.

Which value of growth at 10 µM has been reported for Cn1cc(C2=C(c3c[nH]c4ccccc34)C(=O)N(O)C2=O)c2ccccc21 in the records?
81.7

Next compound up: Cn1cc(C2=C(c3cn(CCCCCC#N)c4ccccc34)C(=O)N(O)C2=O)c2ccccc21
88.2

Next compound up: O=C(O)CCCCCn1cc(C2=C(c3c[nH]c4ccccc34)C(=O)N(O)C2=O)c2ccccc21
95.6

Next compound up: CC(C)n1cc(C2=C(c3cn(C)c4ccccc34)C(=O)N(O)C2=O)c2ccccc21
87.4

* * *

Exercise: for every item that follows, state its recorded growth at 10 µM.
# Tested on: NCI-H226
# Assay Procedure: Cytotoxicity against human NCI-H226 cells assessed as cell growth at 10 uM after 48 hrs by SRB assay relative to control
# Type: functional
# Condition Summary: NCI-H226, 48 h, read-out: Activity
Expressed in %, but write only the number.

Which value of growth at 10 µM has been reported for O=C(O)CCCCCn1cc(C2=C(c3c[nH]c4ccccc34)C(=O)N(O)C2=O)c2ccccc21 in the records?
92.5

Next compound up: CC(C)n1cc(C2=C(c3c[nH]c4ccccc34)C(=O)N(O)C2=O)c2ccccc21
102

Next compound up: N#CCCCCCn1cc(C2=C(c3cn(CCCCCC#N)c4ccccc34)C(=O)NC2=O)c2ccccc21
80.4

Next compound up: Cn1cc(C2=C(c3c[nH]c4ccccc34)C(=O)N(O)C2=O)c2ccccc21
76.9

Next compound up: O=C1C2=C(C(=O)N1O)c1cn(c3ccccc13)CCCCCCn1cc2c2ccccc21
101

* * *

Exercise: for every item that follows, state its recorded growth at 10 µM.
# Test system: MOLT-4
# Assay Procedure: Cytotoxicity against human MOLT4 cells assessed as cell growth at 10 uM after 48 hrs by SRB assay relative to control
# Assay type: functional
# Condition Summary: MOLT-4, 48 h, read-out: Activity
Expressed in %, but write only the number.

Which value of growth at 10 µM has been reported for Cn1cc(C2=C(c3cn(CCCCCC(=O)O)c4ccccc34)C(=O)N(O)C2=O)c2ccccc21 in the records?
92.6

Next molecule up: O=C(O)CCCCCn1cc(C2=C(c3c[nH]c4ccccc34)C(=O)N(O)C2=O)c2ccccc21
99.7

Next molecule up: Cn1cc(C2=C(c3cn(CCCCCC#N)c4ccccc34)C(=O)N(O)C2=O)c2ccccc21
95.7

Next molecule up: CC(C)n1cc(C2=C(c3c[nH]c4ccccc34)C(=O)N(O)C2=O)c2ccccc21
77

Next molecule up: Cn1cc(C2=C(c3cn(C)c4ccccc34)C(=O)N(O)C2=O)c2ccccc21
101

Next molecule up: O=C1C2=C(C(=O)N1O)c1cn(c3ccccc13)CCCCCCn1cc2c2ccccc21
110

Next molecule up: CC(C)n1cc(C2=C(c3cn(C)c4ccccc34)C(=O)N(O)C2=O)c2ccccc21
82.4

Next molecule up: Cn1cc(C2=C(c3c[nH]c4ccccc34)C(=O)N(O)C2=O)c2ccccc21
79

* * *

# Test system: PC-3
# Assay Procedure: Cytotoxicity against human PC3 cells assessed as cell growth at 10 uM after 48 hrs by SRB assay relative to control
# Assay type: functional
# Condition Summary: PC-3, 48 h, read-out: Activity
Lab note: compare growth at 10 µM against 90%. Equal or greater, write true (1). Smaller, write false (0).

State whether the measured growth at 10 µM reaches 90%, counting equality as reaching it, for O=C(O)CCCCCn1cc(C2=C(c3c[nH]c4ccccc34)C(=O)N(O)C2=O)c2ccccc21
false (0)

Next compound up: Cn1cc(C2=C(c3cn(CCCCCC#N)c4ccccc34)C(=O)N(O)C2=O)c2ccccc21
false (0)

Next compound up: Cn1cc(C2=C(c3cn(CCCCCC(=O)O)c4ccccc34)C(=O)N(O)C2=O)c2ccccc21
false (0)

Next compound up: N#CCCCCCn1cc(C2=C(c3cn(CCCCCC#N)c4ccccc34)C(=O)NC2=O)c2ccccc21
false (0)

Next compound up: Cn1cc(C2=C(c3c[nH]c4ccccc34)C(=O)N(O)C2=O)c2ccccc21
false (0)

Next compound up: O=C1C2=C(C(=O)N1O)c1cn(c3ccccc13)CCCCCCn1cc2c2ccccc21
true (1)

Next compound up: CC(C)n1cc(C2=C(c3c[nH]c4ccccc34)C(=O)N(O)C2=O)c2ccccc21
true (1)

* * *

# Tested on: TK-10
# Assay Procedure: Cytotoxicity against human TK10 cells assessed as cell growth at 10 uM after 48 hrs by SRB assay relative to control
# Type: functional
# Condition Summary: TK-10, 48 h, read-out: Activity
Exercise: for every item that follows, state its recorded growth at 10 µM.
Expressed in %, but write only the number.

Which value of growth at 10 µM has been reported for N#CCCCCCn1cc(C2=C(c3cn(CCCCCC#N)c4ccccc34)C(=O)NC2=O)c2ccccc21 in the records?
101

Next compound up: CC(C)n1cc(C2=C(c3c[nH]c4ccccc34)C(=O)N(O)C2=O)c2ccccc21
84.5

Next compound up: O=C1C2=C(C(=O)N1O)c1cn(c3ccccc13)CCCCCCn1cc2c2ccccc21
105

Next compound up: CC(C)n1cc(C2=C(c3cn(C)c4ccccc34)C(=O)N(O)C2=O)c2ccccc21
127
